experimentalEndpoint: Kd (µM)
Provide only the numeric value, understood in µM.

Find the measured Kd: item CN(CCCN1CN(c2ccccc2)C2(CCN(CC[C@@H]3CC[C@H]4C[C@@H]3C4(C)C)CC2)C1=O)CC1(O)CCN(C(=N)N)CC1 , target or system TbTR (Trypanosoma brucei brucei).
10.3
